# system tested: Human immunodeficiency virus type 1 protease (Human immunodeficiency virus 1)
experimental readout: Ki (nM)

molecule | experimental readout | observed result
N#Cc1ccc(S(=O)(=O)Cc2cccc(C(c3c(O)c4c(oc3=O)CCCCCC4)C3CC3)c2)cc1 (configuration not stated) | Ki | 1.9
O=c1oc2c(c(O)c1C(c1cccc(CS(=O)(=O)c3ccccn3)c1)C1CC1)CCCCCC2 (configuration not stated) | Ki | 1.9
